Source listed as paper PMC7395068.

# Tested on: hLiMTs
value-kind: hLiMTs <10 uM All

O=P1(N(CCCl)CCCl)NCCCO1 (stereo not shown) [cyclophosphamide, reference compound] | -ve
Nc1c2c(nc3ccccc13)CCCC2 [tacrine, reference compound] | -ve
CC(C)[N+](C)(CCOC(=O)C1c2ccccc2Oc2ccccc21)C(C)C [propantheline] | -ve

---

# System: HepaRG spheroids
# assay-notes: Combined HCI (HCS) and cellular ATP 3D assay in HepaRG spheroids
# condition-label: HepaRG; all endpoints; Cmax max used
value-kind: HepaRG Cmax max All

The examples below pair each entry with its known result.
C1CCC(C(CC2CCCCN2)C2CCCCC2)CC1 (centres unmarked) [perhexiline] | +ve
N[C@@H](Cc1cc(I)c(Oc2ccc(O)c(I)c2)c(I)c1)C(=O)O [liothyronine] | -ve
Cc1ccc(N(CC2=NCCN2)c2cccc(O)c2)cc1 [phentolamine] | -ve
Cc1cc2c(cc1CC(=O)c1sccc1S(=O)(=O)Nc1onc(C)c1Cl)OCO2 [sitaxsentan] | +ve
CCN(CC)C(=O)/C(C#N)=C/c1cc(O)c(O)c([N+](=O)[O-])c1 [entacapone] | +ve
NC(=O)N1c2ccccc2C=Cc2ccccc21 [carbamazepine, reference compound] | +ve
CS(=O)(=O)CCNCc1ccc(-c2ccc3ncnc(Nc4ccc(OCc5cccc(F)c5)c(Cl)c4)c3c2)o1 [lapatinib] | +ve
CC(COc1ccccc1)N(CCCl)Cc1ccccc1 (centres unmarked) [phenoxybenzamine] | -ve
C[N+](C)(C)CC(=O)O [betaine, reference compound] | -ve
CN(C)C(=N)N=C(N)N [metformin] | -ve

[Q] Name the reported HepaRG Cmax max All value associated with the molecule CNC1(C)C2CCC(C2)C1(C)C (centres unmarked) [mecamylamine]
[A] -ve

[Q] Now this one: CCc1nn(CCCN2CCN(c3cccc(Cl)c3)CC2)c(=O)n1CCOc1ccccc1 [nefazodone, reference compound]
[A] +ve

[Q] Now this one: COc1ccccc1Oc1c(NS(=O)(=O)c2ccc(C(C)(C)C)cc2)nc(-c2ncccn2)nc1OCCO [bosentan]
[A] +ve

[Q] Now this one: Nc1cc(N2CCCCC2)nc(N)[n+]1[O-] [minoxidil]
[A] -ve

[Q] Now this one: CN(C)CCC(c1ccc(Cl)cc1)c1ccccn1 (centres unmarked) [chlorpheniramine]
[A] -ve

[Q] Now this one: CCOC(=O)CN[C@@H](C(=O)N1CC[C@H]1C(=O)NCc1ccc(/C(N)=N\O)cc1)C1CCCCC1 [ximelagatran]
[A] -ve

[Q] Now this one: NNC(=O)c1ccncc1 [isoniazid, reference compound]
[A] +ve

[Q] Now this one: CCc1ccc(CCOc2ccc(CC3SC(=O)NC3=O)cc2)nc1 (centres unmarked) [pioglitazone, reference compound]
[A] +ve

[Q] Now this one: CN1CCN(C2=Nc3cc(Cl)ccc3Nc3ccccc32)CC1 [clozapine]
[A] +ve
